Consider the following sequences; for each one, report its solubility change mitosis (log2).
- Test system: HeLa Kyoto;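 further: synchronized HeLa Kyoto cells (double thymidine block for G1/S, nocodazole release for mitosis), protein amounts in NP-40 versus SDS lysates quantified by mass spectrometry, three biological replicates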
- Procedure text: solubility change mitosis vs G1/S (difference of NP-40 vs SDS log2 ratios) (log2 ratio difference); higher = more soluble in mitosis
One number for each entry.

Entry sequence	Assay system	solubility change mitosis (log2)
MAVTAQAARRKERVLCLFDVDGTLTPARQKIDPEVAAFLQKLRSRVQIGVVGGSDYCKIAEQLGDGDEVIEKFDYVFAENGTVQYKHGRLLSKQTIQNHLGEELLQDLINFCLSYMALLRLPKKRGTFIEFRNGMLNISPIGRSCTLEERIEFSELDKKEKIREKFVEALKTEFAGKGLRFSRGGMISFDVFPEGWDKRYCLDSLDQDSFDTIHFFGNETSPGGNDFEIFADPRTVGHSVVSPQDTVQRCREIFFPETAHEA [PMM1]	HeLa Kyoto	0.102

Now for a further sequence.
Q: What value of solubility change mitosis (log2) has been reported for the following sequence? MSTEGGGRRCQAQVSRRISFSASHRLYSKFLSDEENLKLFGKCNNPNGHGHNYKVVVTVHGEIDPATGMVMNLADLKKYMEEAIMQPLDHKNLDMDVPYFADVVSTTENVAVYIWDNLQKVLPVGVLYKVKVYETDNNIVVYKGE [PTS]
Result: -0.182
